systemTested: T1, mouse Pirb (mouse, UniProt P97484 25-642, limits assumed)
T1 construct: Bought protein coated on the ELISA plate; also called PirB (murine homologue to LILRB)
T1 sequence (looked up): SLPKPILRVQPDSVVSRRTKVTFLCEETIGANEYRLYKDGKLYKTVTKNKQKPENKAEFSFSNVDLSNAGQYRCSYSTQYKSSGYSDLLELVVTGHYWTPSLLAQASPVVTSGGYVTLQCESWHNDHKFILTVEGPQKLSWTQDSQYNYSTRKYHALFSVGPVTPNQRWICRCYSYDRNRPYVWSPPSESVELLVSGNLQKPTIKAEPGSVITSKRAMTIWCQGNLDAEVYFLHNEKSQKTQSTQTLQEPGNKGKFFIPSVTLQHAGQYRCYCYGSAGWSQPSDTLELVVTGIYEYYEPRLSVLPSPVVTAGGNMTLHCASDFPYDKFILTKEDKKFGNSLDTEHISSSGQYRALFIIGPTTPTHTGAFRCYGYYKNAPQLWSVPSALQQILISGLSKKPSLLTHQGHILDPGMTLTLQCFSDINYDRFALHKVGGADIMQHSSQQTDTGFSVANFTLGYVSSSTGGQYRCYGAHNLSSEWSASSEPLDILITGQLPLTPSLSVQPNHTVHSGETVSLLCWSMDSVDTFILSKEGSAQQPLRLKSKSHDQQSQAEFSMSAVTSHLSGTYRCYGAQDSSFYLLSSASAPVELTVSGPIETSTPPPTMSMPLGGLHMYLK
protocolText: ELISA, receptor coated at 10 µg/mL, HLA2-Fc at 10 µg/mL, anti-human Fc-HRP
observable: binding result

Here's what some known entries look like.
A302-Fc (Fc fusion, also called HLA2-Fc; HLA-A30 open conformer; not shown: human IgG4 Fc (human IgG4-Fc vector, InvivoGen)) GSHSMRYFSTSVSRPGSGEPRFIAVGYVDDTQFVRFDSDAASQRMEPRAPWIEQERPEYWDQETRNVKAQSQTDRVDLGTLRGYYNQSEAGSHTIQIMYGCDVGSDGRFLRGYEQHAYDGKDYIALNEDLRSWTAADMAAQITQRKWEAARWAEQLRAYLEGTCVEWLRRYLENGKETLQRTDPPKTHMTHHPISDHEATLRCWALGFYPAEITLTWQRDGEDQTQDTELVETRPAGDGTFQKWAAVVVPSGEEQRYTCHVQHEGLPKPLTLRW ... binds
B272-Fc (Fc fusion, also called B27052-Fc; HLA2-Fc; not shown: human IgG4 Fc (human IgG4-Fc vector, InvivoGen)) GSHSMRYFHTSVSRPGRGEPRFITVGYVDDTLFVRFDSDAASPREEPRAPWIEQEGPEYWDRETQICKAKAQTDREDLRTLLRYYNQSEAGSHTLQNMYGCDVGPDGRLLRGYHQDAYDGKDYIALNEDLSSWTAADTAAQITQRKWEAARVAEQLRAYLEGECVEWLRRYLENGKETLQRADPPKTHVTHHPISDHEATLRCWALGFYPAEITLTWQRDGEDQTQDTELVETRPAGDRTFQKWAAVVVPSGEEQRYTCHVQHEGLPKPLTLRW ... binds
B572-Fc (Fc fusion, also called HLA2-Fc; HLA-B57 open conformer; not shown: human IgG4 Fc (human IgG4-Fc vector, InvivoGen)) GSHSMRYFYTAMSRPGRGEPRFIAVGYVDDTQFVRFDSDAASPRMAPRAPWIEQEGPEYWDGETRNMKASAQTYRENLRIALRYYNQSEAGSHIIQVMYGCDVGPDGRLLRGHDQSAYDGKDYIALNEDLSSWTAADTAAQITQRKWEAARVAEQLRAYLEGLCVEWLRRYLENGKETLQRADPPKTHVTHHPISDHEATLRCWALGFYPAEITLTWQRDGEDQTQDTELVETRPAGDRTFQKWAAVVVPSGEEQRYTCHVQHEGLPKPLTLRW ... binds
B532-Fc (Fc fusion, also called HLA2-Fc; HLA-B53 open conformer; not shown: human IgG4 Fc (human IgG4-Fc vector, InvivoGen)) GSHSMRYFYTAMSRPGRGEPRFIAVGYVDDTQFVRFDSDAASPRTEPRAPWIEQEGPEYWDRNTQIFKTNTQTYRENLRIALRYYNQSEAGSHIIQRMYGCDLGPDGRLLRGHDQSAYDGKDYIALNEDLSSWTAADTAAQITQRKWEAARVAEQLRAYLEGLCVEWLRRYLENGKETLQRADPPKTHVTHHPVSDHEATLRCWALGFYPAEITLTWQRDGEDQTQDTELVETRPAGDRTFQKWAAVVVPSGEEQRYTCHVQHEGLPKPLTLRW ... binds
B582-Fc (Fc fusion, also called HLA2-Fc; HLA-B58 open conformer; not shown: human IgG4 Fc (human IgG4-Fc vector, InvivoGen)) GSHSMRYFYTAMSRPGRGEPRFIAVGYVDDTQFVRFDSDAASPRTEPRAPWIEQEGPEYWDGETRNMKASAQTYRENLRIALRYYNQSEAGSHIIQRMYGCDLGPDGRLLRGHDQSAYDGKDYIALNEDLSSWTAADTAAQITQRKWEAARVAEQLRAYLEGLCVEWLRRYLENGKETLQRADPPKTHVTHHPVSDHEATLRCWALGFYPAEITLTWQRDGEDQTQDTELVETRPAGDRTFQKWAAVVVPSGEEQRYTCHVQHEGLPKPLTLRW ... binds

With those in mind, consider the next binder.
Measured binding result, A252-Fc (Fc fusion, also called HLA2-Fc; HLA-A25 open conformer; not shown: human IgG4 Fc (human IgG4-Fc vector, InvivoGen)) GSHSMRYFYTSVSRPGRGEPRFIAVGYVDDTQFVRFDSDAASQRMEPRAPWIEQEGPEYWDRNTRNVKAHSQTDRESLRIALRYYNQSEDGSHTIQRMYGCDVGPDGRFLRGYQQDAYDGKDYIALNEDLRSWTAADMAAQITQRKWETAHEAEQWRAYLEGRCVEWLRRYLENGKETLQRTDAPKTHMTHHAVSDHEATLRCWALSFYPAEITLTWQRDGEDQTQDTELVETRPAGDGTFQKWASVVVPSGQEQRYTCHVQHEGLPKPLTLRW : binds
